B1: LINE1-full (parent)
chain: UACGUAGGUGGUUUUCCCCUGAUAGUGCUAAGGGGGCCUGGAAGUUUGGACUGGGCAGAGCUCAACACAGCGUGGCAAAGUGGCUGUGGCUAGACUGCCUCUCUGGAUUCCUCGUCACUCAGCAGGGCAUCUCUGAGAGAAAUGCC

Variants of: B1
Assay: self-cleavage, relative activity (ratio to wild type); higher = more cleavage; in vitro, sequencing; the parent is a self-cleaving ribozyme
Parameter: self-cleavage. Scope: all listed entries.
Write the value as a bare number.

Some variants with recorded self-cleavage:
Req: Request the reported self-cleavage associated with UACGUAGGUGGUUUUCCCCUGAUAGUGCUAAGGGGGCCUGGAAGUUUGGACUGGGCAGAGCUCAACACAGCGUGGCAAAGUGGCUGUGGCUAGACUGCCUCUCUGGAUUCCUCGUCACUCAGCAGGGCAUCUCUGAGAUAAAUGCC
Resp: 1.31

Req: Then what about the variant UACGUAGGUGGUUUUCCCCUGAUAGUGCUAAGGGGGCCUGGAAGCUUGGACUGGGCAGAGCUCAACACAGCGUGGCAAAGUGGCUGUGGCUAGACUGCCUCUCUGGAUUCCUCGUCACCCAGCAGGGCAUCUCUGAGAGAAAUGCC ?
Resp: 2.12

Req: Then what about the variant UACGUAGGUGGUUUUCCCCUGAUAGUGCUAAGGGGGCCUGGAGGUUUGGACUGGGCAGAGCUCAACACAGCGUGGCAAAGUGGCUGUGGCUAGACUGCCUCUCUGGAUUCCUCGUCACUCAGCAGGGCAUCUCUGAGAGGAAUGCC ?
Resp: 1.35

New cases:
Req: Request the reported self-cleavage associated with UACGUAGGUGGUUUUCCCCUGAUAGUGCUAAGGGGGCCUGGAAGUUUGGUCUGGGCAGAGCUCGACACAGCGUGGCAAAGUGGCUGUGGCUAGACUGCCUCUCUGGAUUCCUCGUCACUCAGCAGGGCAUCUCUGAGAGAAAUGCC
Resp: 0.16

Req: Then what about the variant UACGAAGGUGGUUUUCCCCUGAUAGUGCUAAGGGGGCCUGGAGGUUUGGACUGGGCAGAGCUCAACACAGCGUGGCAAAGUGGCUGUGGCUAGACUGCCUCUCUGGAUUCCUCGUCACUCAGCAGGGCAUCUCUGAGAGAAAUGCC ?
Resp: 0.76

Req: Then what about the variant UACGUAGGUGGUUUUCCCCUGAUAGUGCUAAGGGGGCCUGGAAGUUUGGACUGGGCAGAGCUCGACACAGCGUGGCAAAGUGGCUGUGGCUAGACUGCCUCUCUGGAUUCCUCGUCGCUCAGCAGGGCAUCUCUGAGAGAAAUGCC ?
Resp: 0.21

Req: Then what about the variant UACGUAGGUGGUUUUCCCCUGAUAGUGCUAAGGGGGCCUGGAAGUUUGGACUGGGCAGAGCUCAACACAGCGUGGCAAAGUAGCUGUGGCUAGACUGCCUCUCUGGAUUCCUCGUCGCUCAGCAGGGCAUCUCUGAGAGAAAUGCC ?
Resp: 1.77

Req: Then what about the variant UACGUAGGUGGGUUUCCCCAGAUAGUGCUAAGGGGGCCUGGAAGUUUGGACUGGGCAGAGCUCAACACAGCGUGGCAAAGUGGCUGUGGCUAGACUGCCUCUCUGGAUUCCUCGUCACUCAGCAGGGCAUCUCUGAGAGAAAUGCC ?
Resp: 1.08

Req: Then what about the variant UACGUAGGUGGUUUUCCCCUGAUAGUGCUAAGGGGGCCUGGAAGUUUGGACUGGGCAGAGCUCAACACAGCGUGGCAAAGUGGCUGAGGCUAGACUGCCUCUCUGGAUUCCUCGUCACUCAGCAGUGCAUCUCUGAGAGAAAUGCC ?
Resp: 0.08

Req: Then what about the variant UAUGUAGGUGGUUUUCCCCUGAUAGUGCUAAGGGGGCCUGGAAGUUUGGACUGGGCAGAGCUCAACACAGCGUGGCAAAGUGGCUGUGGCUAGACUGCCUCUCUGGACUCCUCGUCACUCAGCAGGGCAUCUCUGAGAGAAAUGCC ?
Resp: 1.26

Req: Then what about the variant UACGUAGGUGGUUUUCCCCUGAUAGUGCUAAGGGGGCCUGGUAGUUUGGACUGGGCAGAGCUCAACACAGCGUGGCAAAGUGGCUGUGGCUAGACUGCCUCUCUGGAUUCCUCGUCACACAGCAGGGCAUCUCUGAGAGAAAUGCC ?
Resp: 0.98

Req: Then what about the variant UACGUAGGUGGUUUCCCCCUGAUAGUGCUAAGGGGGCCUGGAAGUUUGGACUGGGCAGAGCUCAACACAGCGUGGCAAAAUGGCUGUGGCUAGACUGCCUCUCUGGAUUCCUCGUCACUCAGCAGGGCAUCUCUGAGAGAAAUGCC ?
Resp: 1.82

Req: Then what about the variant UGCGUAGGUGGUUUUCCCCUGACAGUGCUAAGGGGGCCUGGAAGUUUGGACUGGGCAGAGCUCAACACAGCGUGGCAAAGUGGCUGUGGCUAGACUGCCUCUCUGGAUUCCUCGUCACUCAGCAGGGCAUCUCUGAGAGAAAUGCC ?
Resp: 0.69

Req: Then what about the variant UACGUAGGUGGUUUUCCCCUGAUAGUGCUAAGGGGGCCUGGAAGUUUGGACUAGGCAGAGCUCAACACAGCGUGGCAAGGUGGCUGUGGCUAGACUGCCUCUCUGGAUUCCUCGUCACUCAGCAGGGCAUCUCUGAGAGAAAUGCC ?
Resp: 0.71

Reference source for all entries: the RNAGym collection of RNA variant scans (doi:10.7554/elife.90254)
